Assignment: determine reported IC50 for the given compounds.
# SYSTEM NAME: mouse Abl (27-end) fusion protein (Mus musculus, UniProt P00520)
# Construct: fusion protein corresponding to mouse Abl (27-end)
# Sequence (P00520 27-1123 limits assumed): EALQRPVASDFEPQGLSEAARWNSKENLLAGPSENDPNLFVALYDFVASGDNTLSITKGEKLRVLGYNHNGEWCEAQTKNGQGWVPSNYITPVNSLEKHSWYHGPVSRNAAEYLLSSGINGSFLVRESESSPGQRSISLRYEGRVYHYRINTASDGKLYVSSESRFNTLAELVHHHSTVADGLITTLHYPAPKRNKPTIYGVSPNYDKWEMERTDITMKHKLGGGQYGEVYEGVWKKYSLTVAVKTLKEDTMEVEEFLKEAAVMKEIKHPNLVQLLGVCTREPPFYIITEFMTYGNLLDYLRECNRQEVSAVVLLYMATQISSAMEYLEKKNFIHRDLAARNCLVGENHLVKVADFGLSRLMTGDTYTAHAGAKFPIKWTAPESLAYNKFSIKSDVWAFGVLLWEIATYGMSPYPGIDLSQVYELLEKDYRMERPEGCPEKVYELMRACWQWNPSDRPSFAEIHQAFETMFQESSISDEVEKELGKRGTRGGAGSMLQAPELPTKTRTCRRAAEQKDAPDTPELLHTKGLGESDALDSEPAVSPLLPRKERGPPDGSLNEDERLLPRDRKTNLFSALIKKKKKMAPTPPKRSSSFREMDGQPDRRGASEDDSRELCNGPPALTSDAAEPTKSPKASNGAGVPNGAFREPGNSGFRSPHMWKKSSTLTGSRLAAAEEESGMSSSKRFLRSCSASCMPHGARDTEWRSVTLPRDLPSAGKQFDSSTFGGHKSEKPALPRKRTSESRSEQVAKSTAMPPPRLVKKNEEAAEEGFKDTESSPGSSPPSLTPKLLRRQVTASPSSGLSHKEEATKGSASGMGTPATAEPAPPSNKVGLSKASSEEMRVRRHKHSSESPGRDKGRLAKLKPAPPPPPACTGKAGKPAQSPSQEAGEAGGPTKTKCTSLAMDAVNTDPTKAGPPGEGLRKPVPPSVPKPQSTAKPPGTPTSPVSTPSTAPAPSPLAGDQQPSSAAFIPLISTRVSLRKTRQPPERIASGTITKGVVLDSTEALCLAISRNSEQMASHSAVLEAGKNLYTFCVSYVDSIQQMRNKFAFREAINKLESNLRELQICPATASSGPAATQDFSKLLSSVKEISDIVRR
# ASSAY TEXT: IC50 determination for inhibitors of Abl kinase (IMAP fluorescence polarization)
# TEST SETTINGS: 22.8 uM ATP, 37° C., 60 minutes; read-out: IC50 Abl kinase inhibition

Request: Quick one: IC50 of CCN(CC)CCOc1ccc(Nc2ncc3cc(-c4ccccc4C)n(Cc4cccc(OC)c4)c(=O)c3n2)cc1 [Example 22] ?
Response: 1 to 500 nM

Request: So what's the measured IC50 for this one? COc1cccc(Cn2c(-c3ccccc3C)cc3cnc(Nc4ccc(N5CCN(C)CC5)cc4)nc3c2=O)c1 [Example 20]
Response: 1 to 500 nM

Request: Could you tell me which IC50 is on file for Cc1ccccc1-c1cc2cnc(Nc3ccc(S(=O)(=O)NCCO)cc3)nc2c(=O)n1CC(N)=O [Example 5] ?
Response: 77 nM

Request: Looking for the measured IC50 of COc1cccc(Cn2c(-c3ccccc3Cl)cc3cnc(Nc4ccc(S(=O)(=O)NCCO)cc4)nc3c2=O)c1 [Example 37] , can you help?
Response: 1 to 500 nM

Request: # get_value(readout='IC50', item= Cc1ccccc1-c1cc2cnc(Nc3ccc(N4CCOCC4)cc3)nc2c(=O)n1C [Example 1] )
Response: 1 to 500 nM

Request: I have this compound here, COc1cccc(Cn2c(-c3ccccc3C)cc3cnc(Nc4cccc([S+](C)[O-])c4)nc3c2=O)c1 (centres unmarked) [Example 23] , and I need its recorded IC50.
Response: 1 to 500 nM

Request: I have this compound here, Cc1cc(Cn2c(-c3ccccc3Cl)cc3cnc(Nc4ccc(N5CCN(C)CC5)cc4)nc3c2=O)nn1C [Example 30] , and I need its recorded IC50.
Response: 1 to 500 nM

Request: Suppose we examine the compound Cc1ccccc1-c1cc2cnc(NC3CCOCC3)nc2c(=O)n1C [Example 12] ; what IC50 value has been reported?
Response: 500 to 15000 nM

----------
# SYSTEM NAME: mouse Abl (27-end) fusion protein (Mus musculus, UniProt P00520)
# Construct: fusion protein corresponding to mouse Abl (27-end)
# ASSAY TEXT: IC50 determination for inhibitors of Abl kinase (IMAP fluorescence polarization)
# TEST SETTINGS: 22.8 uM ATP, 37° C., 60 minutes; read-out: IC50 Abl kinase inhibition
pIC50: −log10 of the molar value.
So I've got a bunch of molecules here, and I need their pIC50 values.

Request: GET /values?readout=pIC50&item= Cc1ccccc1-c1cc2cnc(Nc3cccc([S+](C)[O-])c3)nc2c(=O)n1CC(N)=O (centres unmarked)
Response: 6.67

Request: Consider the molecule Cc1ccccc1-c1cc2cnc(Nc3ccc(S(=O)(=O)NCCO)cc3)nc2c(=O)n1C and give its measured pIC50.
Response: 6.30 to 9.00

Request: Give the measured pIC50 of Cc1ccccc1-c1cc2cnc(NC(CO)CO)nc2c(=O)n1C .
Response: 4.82 to 6.30

Request: Please report the recorded pIC50 for CCN(CC)CCOc1ccc(Nc2ncc3cc(-c4ccccc4C)n(C)c(=O)c3n2)cc1 .
Response: 6.30 to 9.00

Request: Which pIC50 reading was recorded for the molecule COc1cccc(Cn2c(-c3ccccc3C)cc3cnc(Nc4ccc(S(=O)(=O)NCCO)cc4)nc3c2=O)c1 ?
Response: 6.30 to 9.00
